protocol.summary: Pharmacokinetic assessments in patient plasma
Assay type: in vivo, human
study.conditions: human, plasma, oral, t1/2, vatalanib after everolimus started, day 29, mean ± SD

- line.notation: "Clc1ccc(Nc2nnc(Cc3ccncc3)c3ccccc23)cc1"
  half-life, h: 5.7

----------
Listing of entries alongside the reported Vd/F.
protocol.summary: Pharmacokinetic assessments in patient plasma
Assay type: in vivo, human
study.conditions: human, plasma, oral
readout: Vd/F

- compound: "CO[C@H]1C[C@@H]2CC[C@@H](C)[C@@](O)(O2)C(=O)C(=O)N2CCCC[C@H]2C(=O)O[C@H]([C@H](C)C[C@@H]2CC[C@@H](OCCO)[C@H](OC)C2)CC(=O)[C@H](C)/C=C(\\C)[C@@H](O)[C@@H](OC)C(=O)[C@H](C)C[C@H](C)/C=C/C=C/C=C/1C [Everolimus]"
  reported.measurement: "216 L"
- compound: "Clc1ccc(Nc2nnc(Cc3ccncc3)c3ccccc23)cc1 [Vatalanib]"
  reported.measurement: "488 L"
